Biological target: NDM-1 (Klebsiella pneumoniae)
Sequence (C7C422 29-270, looked up, species assumed): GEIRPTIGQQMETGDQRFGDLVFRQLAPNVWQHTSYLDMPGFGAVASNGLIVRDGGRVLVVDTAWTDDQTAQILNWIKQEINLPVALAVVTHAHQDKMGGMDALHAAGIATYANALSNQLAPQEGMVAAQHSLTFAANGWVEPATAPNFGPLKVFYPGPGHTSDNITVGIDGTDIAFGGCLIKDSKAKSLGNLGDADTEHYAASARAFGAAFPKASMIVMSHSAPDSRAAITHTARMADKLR
Assay: Enzyme activity: determination of IC50, fluorescence assay with CCF2-FA substrate
Format: biochemical
Settings: enzyme 1 pM, CCF2-FA 1.25 μM, 2 hours at 25° C.; read-out: NDM1 IC50
Collected pIC50 values appear next to each entry.
Hey, just a heads up that pIC50 is the negative log base 10 of the concentration in molar.

CCC[C@H](C(=O)O)[C@H](Cc1ccc(CN)cc1)c1nnn[nH]1; 5.80
CC(C)C[C@H](C(=O)O)[C@H](Cc1ccc(C(N)=O)cc1)c1nnn[nH]1; 7.37
O=C(O)[C@@H](CCCC(F)(F)F)[C@H](Cc1ccccc1)c1nnn[nH]1; 6.62
CCC[C@H](C(=O)O)[C@H](Cc1ccc(CN2CCNCC2)cc1)c1nnn[nH]1; 6.92

Pending compound:
Task: For CCC[C@H](C(=O)O)[C@H](Cc1ccc(-c2ccc(N)nc2)cc1)c1nn[nH]n1 , what is its reported pIC50?
Result: 8.09
